test_system: Acetylcholinesterase (Homo sapiens)
assay_details: Acetylcholinesterase (AChE) small molecule antagonists: colormetric cell-based qHTS assay (AID 1347395); note: nearly all actives have a fitted effect of over 30% in size
setup_conditions: SH-SY5Y cells AChE activity, colorimetric (Ellman); series mostly up to 115 µM
Results filed as inconclusive are left out. Calls of active or inactive are those of the source. Calls come from the whole dose curve.
metric_name: activity, negative = inhibition

Worked examples, 5 molecules total:
COC[C@H](c1ccc(C(F)(F)F)cc1)N1CCN(C2(C)CCN(C(=O)c3c(C)ncnc3C)CC2)C[C@H]1C :: inactive
CCCCCCCCCCC=CC1CC(=O)OC1=O (configuration not stated) :: inactive
O=c1oc2cc(O)ccc2c2oc3cc(O)ccc3c12 :: inactive
Cc1ccc2ccccc2n1 :: inactive
CCO/C=C1\N=C(c2ccccc2)OC1=O :: inactive

Query (molecule): O=C(O)c1cccc(C(=O)O)c1 ; field requested: activity, negative = inhibition
inactive

What activity, negative = inhibition value was documented for this molecule, C=C(C)C(=O)OCc1ccccc1 ?
inactive

For the molecule shown here, CCC(=O)OC , give the reported activity, negative = inhibition.
inactive

====

test_system: Aromatase (Homo sapiens)
assay_details: qHTS assay to identify aromatase inhibitors (AID 743083); note: nearly all actives have a fitted effect of over 55% in size; note: potency is the fitted concentration of half-maximal effect
setup_conditions: MCF-7 aro ERE, testosterone-driven ERE luciferase, 24 h; series mostly up to 70.3 µM
Records with an inconclusive call do not appear. The source made the active and inactive calls. Calls follow the shape of the dose curve; as a rule, active = well fitted inhibition curve with a large enough effect in the repeat runs; inconclusive = weak or mixed curves; inactive = no such curve, though single readings can be large or run the other way.
metric_name: Potency

// known answers, use as guide
COC(=O)[C@@H]1[C@H]2CC[C@@H](C[C@H]1OC(=O)c1ccccc1)N2C :: inactive
CN1c2ccccc2C(NCCCCCCC(=O)O)c2ccc(Cl)cc2S1(=O)=O (stereo not given) :: inactive
Cc1cccc([N+](=O)[O-])c1C :: inactive
CN[C@]1(c2ccccc2Cl)CCCCC1=O :: inactive
CCCCCCC(=O)O[C@H]1CC[C@H]2[C@@H]3CC[C@H]4CC(=O)C=C(C)[C@]4(C)[C@H]3CC[C@]12C :: inactive
O=C1C=C2C=C[C@@H]3C[C@@]2(O1)[C@H]1CCCCN31 :: 13.3 µM (active)

I am curious: what Potency value has been reported for N#CC1(N2CCCCC2)CCCCC1 ?
inactive

I have this compound here, c1ccccc1 , and I need its recorded Potency.
inactive

====

assay_details: qHTS RealTime-Glo MT Cell Viability Assay in HEK293 cells - 32 hour (AID 1224868); note: nearly all actives have a fitted effect of over 50% in size; note: potency is the fitted concentration of half-maximal effect
setup_conditions: RealTime-Glo luminescence; series mostly up to 76.8 µM
Results filed as inconclusive are left out. The source made the active and inactive calls. The call rests on the fitted dose curve; in most records, active means well fitted cell-killing curve with a large enough effect in the repeat runs; inconclusive means weak or mixed curves, or effect the other way; inactive means flat fitted curve, though single readings scatter.
metric_name: Potency

// solved cases for Potency follow
CC(c1ccccc1)(c1ccc(O)cc1)c1ccc(O)cc1 :: 43.6 µM (active)
O=[N+]([O-])c1c(Cl)c(Cl)cc(Cl)c1Cl :: inactive
O=C1C(I)=CC(=C(c2cc(I)c(O)c(I)c2)c2ccccc2C(=O)O)C=C1I :: inactive
COc1cc(OC)c(OC)cc1C=O :: inactive
C[C@]12CC[C@@H](O)C[C@@H]1CC[C@@H]1[C@@H]2CC[C@]2(C)C(=O)CC[C@@H]12 :: 24.5 µM (active)

Here's the next entry for you.
# Potency lookup, item N#Cc1cc([N+](=O)[O-])ccc1N
inactive

====

test_system: Acetylcholinesterase (Homo sapiens)
assay_details: Acetylcholinesterase (AChE) small molecule antagonists: enzyme-based qHTS assay (AID 1347397); note: nearly all actives have a fitted effect of over 55% in size
setup_conditions: AChE enzyme activity inhibition; series mostly up to 115 µM
Active and inactive are the calls of the source. The call rests on the fitted dose curve.
Select the correct class. Options are 1 for active, -1 for inactive and nothing else.

Would you please look over these solved cases?
CN(C)CCN(Cc1ccsc1)c1ccccn1 :: -1
CCC(C)(C)CC :: -1
CC(C)CCO :: -1
COC(Cc1ccccc1)OC :: -1
C=COCCCCO :: -1
O=S(=O)(O)C(F)(F)F :: -1
Cc1cccc(O)c1C :: -1
O=C(O)c1ccc(Cl)c(Cl)c1 :: -1
CCc1ccc(O)c(C(C)(C)C)c1 :: -1
COC(=O)/C=C(\C)CCC=C(C)C :: -1

Test call, this compound: c1ccc2cc(Nc3ccc(Nc4ccc5ccccc5c4)cc3)ccc2c1
-1

Per the records of this test, what outcome belongs to CCCCCCCCCCCCc1ccc(O)cc1 ?
1

Given Cc1ccc(C(C)(C)C)c(O)c1 , state the outcome it received in this test.
-1

What outcome does the record of this test show for CC(C)(N)CO ?
-1

Where these numbers come from: PubChem BioAssay (Tox21)
